Hey, just so you know, these numbers are from ChEMBL document CHEMBL4673285.

assay_overview: Half-life in male Sprague-Dawley rat at 4 mg/kg, iv measured up to 24 hrs by LC-MS/MS analysis
Format: ADME, organism-based
applied_conditions: in vivo
endpoint: half-life (h)
Just the number please, in h, no unit attached.

Prompt: Give the measured half-life for Cc1cc(CN[C@H](CO)C(=O)O)c(OCc2cncc(C#N)c2)cc1NCc1cccc(-c2ccccc2)c1C
Completion: 1.38

====

system: Programmed cell death protein 1/Programmed cell death 1 ligand 1 (Homo sapiens, UniProt Q9NZQ7)
Sequence (Q15116 whole entry): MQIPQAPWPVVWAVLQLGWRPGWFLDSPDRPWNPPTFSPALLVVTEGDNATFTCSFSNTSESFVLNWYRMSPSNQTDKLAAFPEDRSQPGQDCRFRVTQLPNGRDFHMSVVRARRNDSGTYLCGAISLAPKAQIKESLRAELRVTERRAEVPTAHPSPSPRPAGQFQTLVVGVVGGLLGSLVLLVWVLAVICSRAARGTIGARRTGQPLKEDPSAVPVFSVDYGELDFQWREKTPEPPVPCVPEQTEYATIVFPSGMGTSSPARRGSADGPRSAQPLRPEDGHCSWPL
Sequence (Q9NZQ7 whole entry): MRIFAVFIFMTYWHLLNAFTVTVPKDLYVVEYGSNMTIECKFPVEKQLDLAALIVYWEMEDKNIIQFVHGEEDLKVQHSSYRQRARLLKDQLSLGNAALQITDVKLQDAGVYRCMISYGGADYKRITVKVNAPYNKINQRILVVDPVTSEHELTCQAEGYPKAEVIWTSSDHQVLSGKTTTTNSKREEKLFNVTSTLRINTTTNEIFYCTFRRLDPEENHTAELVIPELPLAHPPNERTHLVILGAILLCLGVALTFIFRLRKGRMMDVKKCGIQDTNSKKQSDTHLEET
assay_overview: Inhibition of PD1-Tag2/PD-L1-Tag1 (unknown origin) protein-protein interaction preincubated for 15 mins followed by addition of anti-Tag1-Eu3+ and anti-Tag2-XL665 measured after 2.5 hrs by HTRF assay
Rule for this label: y means IC50 is less than 400 nM; n means IC50 is at least 400 nM.

Below, 6 molecules whose answers are already recorded.
Cc1cc(CN2C[C@@H](O)CC2=O)c(OCc2cncc(C#N)c2)cc1NCc1cccc(-c2ccccc2)c1C: n
N#Cc1cccc(COc2cc(NCc3cccc(-c4ccccc4)c3Br)ccc2CN[C@H](CO)C(=O)O)c1: n
Cc1cc(NCc2cccc(-c3ccccc3)c2C)cc(OCc2cccc(C#N)c2)c1CN[C@H](CO)C(=O)O: y
Cc1cc(CN[C@@H](CO)C(=O)O)c(OCc2cncc(C#N)c2)cc1NCc1cccc(-c2ccccc2)c1C: y
N#Cc1cncc(COc2cc(NCc3cccc(-c4ccccc4)c3Br)ccc2CN[C@H](CO)C(=O)O)c1: y
Cc1c(CN(C)c2ccc(CN[C@H](CO)C(=O)O)c(OCc3cccc(C#N)c3)c2)cccc1-c1ccccc1: n

Prompt: Bench note: check whether Cc1cc(CN[C@H](CO)C(=O)O)c(OCc2cncc(C#N)c2)cc1NCc1cccc(-c2ccccc2)c1Br shows IC50 below 400 nM
Completion: y

Prompt: Bench note: check whether Cc1c(CNc2cc(OCc3cncc(C#N)c3)c(CN[C@H](CO)C(=O)O)cc2Cl)cccc1-c1ccccc1 shows IC50 below 400 nM
Completion: y
